Species on record: Cavia porcellus
Assay: Relative affinity for sterol delta-(8)-delta-(7) isomerase over sigma-1 receptor
Quantity Kind: Ratio
Answers are plain numbers.

- Mol: "CC1CCN([C@H](C)COc2ccc(Cl)cc2)CC1"
  Quantity Kind: "Ratio"
  Meas Value: 23
- Mol: "CC1CCN(C[C@H](C)COc2ccc(Cl)cc2)CC1"
  Quantity Kind: "Ratio"
  Meas Value: 13
- Mol: "CC1CCN(C[C@@H](C)COc2ccc(Cl)cc2)CC1"
  Quantity Kind: "Ratio"
  Meas Value: 11

Okay, now this compound:
Ratio reported for this compound CC1CCN([C@@H](C)COc2ccc(Cl)cc2)CC1 : 11

The reported measurements were obtained from ChEMBL document CHEMBL1136792.
